tested on: SNB-75 CNS; experiment: NCI tumour cell line growth inhibition, 48 h
MEASUREMENT KIND: GI50

Known GI50 results, listed for orientation:
COMPOUND: COC(=O)c1cc(O)c2c(c1C(=O)OC)C[C@H]1[C@@H]3CC=C4C[C@@H](O)CC[C@]4(C)[C@H]3CC[C@]21C
GI50: 9.75 µM
//
COMPOUND: NC(=O)c1cccc(Nc2nccc(Nc3cccc4[nH]ncc34)n2)c1
GI50: 4.58 µM
//
COMPOUND: O=C(/C=C/c1ccccc1)n1c(-c2ccc(Cl)cc2)nc2ccccc21
GI50: 1.44 µM

Lab note: need GI50 with SNB-75 CNS for entry CCOC(=O)CC1C(COC(=O)NC)OC(n2cnc3c(NC(=O)Nc4ccccc4)ncnc32)C1O[Si](C)(C)C(C)(C)C (centres undefined) , please look it up. 10.3 µM

* * *

system: SNB-75 CNS; assay: NCI tumour cell line growth inhibition, 48 h
MEASUREMENT KIND: GI50

Consider the reported GI50 for these compounds:
COMPOUND: CCCC(CCC)C(=O)OCC1(CO)C/C(=C\c2ccc(F)cc2)C(=O)O1 (stereo not drawn)
OBSERVED VALUE: 7.99 µM
--
COMPOUND: COc1ccc(C(=O)c2cc3c(N)c(C(=O)Nc4ccc(C)cc4)sc3nc2C)cc1
OBSERVED VALUE: 0.571 µM

Fill in the blank: the reported GI50 of O=Cc1ccc(-c2ccc(-c3nc4ccccc4o3)cc2)o1 is ____. 81.9 µM

* * *

Below, each of the compounds is paired with its reported TGI value.
test system: UO-31 renal; test: NCI tumour cell line growth inhibition, 48 h
The figure you give is taken to be in µM; do not add the unit.

Consider the following illustrative entries.
COMPOUND: O=C(Nc1cccc(O)c1)C(=O)C(C(=O)c1ccc(Cl)c(Cl)c1)C1OC(=O)c2ccccc21 (stereo not drawn)
MEASUREMENT KIND: TGI
OBSERVED VALUE: 27.1

COMPOUND: CC/C=C(\C(=C/CC)[N+](=O)[O-])[N+](=O)[O-]
MEASUREMENT KIND: TGI
OBSERVED VALUE: 33

Given the compound COc1ccc(N2C(=O)C3c4[nH]c5ccc(F)cc5c4C4CCC(c5ccccc5)CC4C3C2=O)cc1 (stereo not drawn) , what is its reported TGI? 55.5

// returns reported TGI for input Cc1c2c(OCCN3CCCCC3)nn(C)c(=O)c2c(C)n1-c1ccccc1 29.1

Please report the recorded TGI for C=C1CCC2C(C)(COC(=O)CC)C(OC(=O)CC)CCC2(C)C1C/C=C1/C(=O)OCC1OC(=O)CC (stereo not drawn) . 3.38

Quick one: TGI for COc1ccc(CN=C(N)N)c2ccccc12 ? 87.9

# TGI lookup, item O=C1OC(O)C(Oc2c(Cl)cccc2Cl)=C1Cl (stereo not drawn) 28.2

Find the recorded TGI belonging to CCCCCCCCCCCCCCCCCC(=O)OCC(COC(=O)CCCN)OC(=O)CCCN (stereo not drawn) and report it. 3.63

* * *

system: NCI-H23 lung; test: NCI tumour cell line growth inhibition, 48 h
Param threshold (30 µM) applies to TGI; output met when value >= threshold, not met when value < threshold.

Consider the following illustrative entries.
COMPOUND: O=C(NCc1cccc2ccccc12)N/N=C\c1ccc(Cl)cc1
ASSIGNED LABEL: met

COMPOUND: COc1ccccc1CNCCCN1C(=O)c2ccc3c4c(ccc(c24)C1=O)C(=O)N(CCCCNCCCN)C3=O
ASSIGNED LABEL: not met

COMPOUND: CCOC(=O)CC1(c2cccc3ccccc23)OC(=O)c2ccccc21 (stereo unspecified)
ASSIGNED LABEL: met

COMPOUND: NC1=CN2c3ccccc3N(CC(=O)O)C2C=C1 (stereo unspecified)
ASSIGNED LABEL: met

# check: TGI of CC1(CCC(=O)OC2CCCCC2)OCCO1 is greater than or equal to 30 µM met

Record CC(=O)OCC1OC(Oc2cc(C)c(O)cc2C/C=C(\C)CC/C=C(\C)CC(=O)CC(C)C)C(O)C(OC(C)=O)C1OC(C)=O (stereo unspecified) ; criterion: TGI no lower than 30 µM. Met? not met

* * *

test system: SN12C renal; test: NCI tumour cell line growth inhibition, 48 h
Each entry below lists one item and its recorded GI50 value.

Solved cases below.
COMPOUND: Cc1cc(CC(C)CC(C)(C)C)n(O)c(=O)c1 (configuration not stated) (tested in a mixture with another compound)
TESTED ON: SN12C renal
GI50: 0.468 µM
//
COMPOUND: N#CC1=C(N)NC(N2CCOCC2)=NC12Nc1ccccc1N2
TESTED ON: SN12C renal
GI50: 30.1 µM

Please give the measured GI50 for this compound: COc1ccc(OC)c2c1[nH]c(=O)c1c3ncccc3cn21 4.48 µM

Quick one: GI50 of O=C1/C(=C\c2ccccn2)c2ccccc2N1c1c(Cl)cccc1Cl ? 2.65 µM

Recorded GI50 of CC(C)(C)[Si](C)(C)OC1[C@@H](O[Si](C)(C)C(C)(C)C)[C@@H](CNC(=O)NC(=O)CCl)O[C@H]1n1cnc2c(NC(=O)Nc3ccccc3)ncnc21 (some centres not stated) , please. 0.786 µM

Entry O=C(OCc1ncc(-c2ccc(C(F)(F)F)cc2)c(NC2CCCCCC2)n1)c1c(F)c(F)c(F)c(F)c1F : reported GI50 = ? 12.1 µM

* * *

system: KM12 colon; experiment: NCI tumour cell line growth inhibition, 48 h
Here the recorded TGI is given for each entry.
Numbers only; they are read as µM.

See these solved cases before continuing.
COMPOUND STRING: CN(C)C=C1C(Cl)=C(C=O)CC(C=O)=C1Cl
TGI [µM]: 22.1

COMPOUND STRING: C=C1C(=O)O[C@H]2[C@@H](O)[C@H](C)CCC[C@]3(C)O[C@H]3CC[C@@]3(C)O[C@@H]3C[C@@H]12
TGI [µM]: 15.3

COMPOUND STRING: COc1ccccc1CNCCCN1C(=O)c2ccc3c4c(ccc(c24)C1=O)C(=O)N(CCCCNCCCN)C3=O
TGI [µM]: 9.7

We next turn to a different molecule, shown below.
Which TGI reading was recorded for the molecule Cc1ccc(N(CC(=O)Nc2ccc(S(=O)(=O)N3CCC(N4CCCC4)CC3)cc2)S(=O)(=O)c2ccc(Cl)cc2)cc1 ? 3.9

* * *

system: CCRF-CEM leukemia; test: NCI tumour cell line growth inhibition, 48 h
MEASUREMENT KIND: TGI

MOLECULE: COc1cc2cc(C(=O)N3CC(CCl)c4c3cc(N)c3ccccc43)[nH]c2c(OC)c1OC (stereo unspecified)
TGI: < 0.01 µM
//
MOLECULE: O=C(OCc1ncc(-c2ccc(C(F)(F)F)cc2)c(NC2CCCCCC2)n1)c1c(F)c(F)c(F)c(F)c1F
TGI: 7.02 µM
//
MOLECULE: CCc1cc(CCC(=O)Nc2c(C)cccc2C)[nH]n1
TGI: > 100 µM
//
MOLECULE: CN1C(=O)N[C@H]2[C@@H]3NC(=O)c4ccc(Br)n4[C@@H]3C[C@]21O
TGI: 0.327 µM
//
MOLECULE: CCOC(=O)CC1C(COC(=O)NC)OC(n2cnc3c(NC(=O)Nc4ccccc4)ncnc32)C1O[Si](C)(C)C(C)(C)C (stereo unspecified)
TGI: > 100 µM
//
MOLECULE: CC(=O)N=C1N(/C=C2\C(=O)Oc3ccccc3C2=O)C(=O)/C(=C/c2ccc(NC(C)=O)cc2)N1C
TGI: > 100 µM
//
MOLECULE: CCOC(=O)C(Cc1cccn1C(=O)OC(C)(C)C)[N+](=O)[O-] (stereo unspecified)
TGI: 35.4 µM
//
MOLECULE: O=[N+]([O-])c1ccc(C=NCC2CCCN3CCCCC23)cc1 (stereo unspecified)
TGI: > 100 µM

Next, consider the following molecule.
Consider the molecule CCOC(=O)CNc1nc(=O)c2c(=O)oc(Cl)cc2o1 and give its measured TGI. 68.3 µM

* * *

// values below are reported TGI
test system: NCI-H460 lung; test: NCI tumour cell line growth inhibition, 48 h

Look up TGI: Cc1cc(Cl)ccc1NC(=O)C(=O)C(C(=O)c1ccc2ccccc2c1)C1OC(=O)c2ccccc21 (stereo unspecified) 60.8 µM

Bench note: what TGI did Cc1ccc(NC(=O)CSc2nc(=O)[nH]c3nc[nH]c23)cc1 show? > 100 µM

Give its TGI value. Item: CC(C)(C)CC(C)(C)NCc1cc(C(C)(C)C)cc(CNC(C)(C)CC(C)(C)C)c1O 12.9 µM

Item Clc1ccc(C2Nc3ccccc3C3=NCCN32)cc1 (stereo unspecified) has what recorded TGI? 53 µM

Need TGI of CC(C)C(N)=O , thanks. > 5000 µM

* * *

tested on: M19-MEL melanoma; test: NCI tumour cell line growth inhibition, 48 h
MEASUREMENT KIND: TGI (µM)
Number only, in µM; omit the unit.

See these solved cases before continuing.
COMPOUND: CC(=O)OC1CC2C(C)(C)C(=O)C=C[C@]2(C)C2CCC3(C)C(=CC(=O)C3c3ccoc3)[C@]12C (some centres undefined)
TESTED ON: M19-MEL melanoma
TGI [µM]: 33.5
--
COMPOUND: CCc1cccc(CC)c1NC(=O)C1=C(C)NC(C)=C(C(=O)Nc2c(CC)cccc2CC)C1c1ccc([N+](=O)[O-])cc1
TESTED ON: M19-MEL melanoma
TGI [µM]: 69.2
--
COMPOUND: C=C(OC1C(C)=C2C(C1OC(=O)CCCCCCC)C(C)(OC(C)=O)CC(OC(=O)CCC)C1(O)C2OC(=O)C1(C)O)/C(C)=C/C (centres undefined)
TESTED ON: M19-MEL melanoma
TGI [µM]: 1.29

Switching to the query record.
// returns reported TGI for input CCOC(=N)/C(=C1\OC(N)=C(c2ccc(Cl)cc2)C1=O)c1ccc(Cl)cc1 34.7
